- SYSTEM_UNDER_TEST: UniProt P31749
- Sequence (P31749 whole entry): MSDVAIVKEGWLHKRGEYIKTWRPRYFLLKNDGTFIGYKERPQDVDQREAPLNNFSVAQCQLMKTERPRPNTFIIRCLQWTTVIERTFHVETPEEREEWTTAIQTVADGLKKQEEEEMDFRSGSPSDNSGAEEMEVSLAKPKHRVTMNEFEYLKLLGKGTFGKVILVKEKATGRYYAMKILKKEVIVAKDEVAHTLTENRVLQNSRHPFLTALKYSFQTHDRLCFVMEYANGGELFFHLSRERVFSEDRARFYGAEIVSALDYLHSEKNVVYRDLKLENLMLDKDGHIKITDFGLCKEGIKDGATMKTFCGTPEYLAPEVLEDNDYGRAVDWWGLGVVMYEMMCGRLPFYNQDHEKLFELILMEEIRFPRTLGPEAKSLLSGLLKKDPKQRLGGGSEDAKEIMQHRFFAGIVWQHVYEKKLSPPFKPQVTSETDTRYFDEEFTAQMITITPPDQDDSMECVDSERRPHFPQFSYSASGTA
- EXPERIMENT_DESCRIPTION: Luciferase-coupled chemiluminescence kinase assay (ATP consumption)
- Format: biochemical
- REPORTED_CONDITIONS: Table 1; class symbols per key; read-out: AKT-1 IC50
METRIC_NAME: IC50

1) Cc1c(NCCN2CCCC2)cc(C(=O)c2ccccc2)cc1N1CCN(c2ncnc3[nH]nc(Br)c23)CC1 ... < 0.1 µM
2) CCc1n[nH]c2ncnc(N3CCN(c4cc(Cl)cc(OCCN5CCN(C)CC5)c4C)CC3)c12 ... 0.1 to 1 µM
3) Brc1n[nH]c2ncnc(N3CCN(c4cccc(OCCN5CCCCC5)c4)CC3)c12 ... 1 to 10 µM
4) COC(=O)c1ccc(C)c(N2CCN(c3ncnc4[nH]nc(Br)c34)CC2)c1 ... < 0.1 µM
5) Cc1ccc(Cl)cc1N1CCN(c2ncnc3[nH]nc(Br)c23)CC1=O ... ≥ 10 µM
6) Cc1c(CCCN2CCN(C)CC2)cc(Cl)cc1N1CCN(c2ncnc3[nH]nc(Br)c23)CC1 ... < 0.1 µM
7) CCNC(=O)c1cc(NCCN2CCCC2)c(C)c(N2CCN(c3ncnc4[nH]nc(Br)c34)CC2)c1 ... < 0.1 µM
8) Cc1cc(F)c(-c2ccc(F)c(F)c2)cc1N1CCN(c2ncnc3[nH]nc(Br)c23)CC1 ... 0.1 to 1 µM
9) CNC(=O)c1ccc(C)c(N2CCN(c3ncnc4[nH]nc(Br)c34)CC2)c1 ... 0.1 to 1 µM
10) Cc1c(NCCN2CCCC2)cc(Cl)cc1N1CCN(c2ncnc3[nH]nc(Br)c23)CC1 ... < 0.1 µM
11) Cc1c(NCCN2CCCC2)cc(OCC2CCCC2)cc1N1CCN(c2ncnc3[nH]nc(Br)c23)CC1 ... < 0.1 µM
12) Cc1c(OCCCN2CCCCC2)cc(Cl)cc1N1CCN(c2ncnc3[nH]nc(C(F)(F)F)c23)CC1 ... 0.1 to 1 µM
13) Clc1cc(NCCN2CCCC2)cc(N2CCN(c3ncnc4[nH]nc(Br)c34)CC2)c1 ... < 0.1 µM
14) CCc1n[nH]c2ncnc(N3CCN(c4cc(Cl)cc(NCCN(C)C(C)C)c4C)CC3)c12 ... 0.1 to 1 µM
15) Cc1c(CCCN2CCCC2)cc(Cl)cc1N1CCN(c2ncnc3[nH]nc(/C=C/C(=O)O)c23)CC1 ... < 0.1 µM
16) CCc1n[nH]c2ncnc(N3CCN(c4cc(C(F)(F)F)ccc4Cl)CC3)c12 ... 1 to 10 µM
17) Brc1n[nH]c2ncnc(N3CCN(c4ccccc4)CC3)c12 ... ≥ 10 µM
